B1: Zinc finger homeobox protein 3, residues 2244 to 2299; numbered along this chain, Q15911 (parent)
chain: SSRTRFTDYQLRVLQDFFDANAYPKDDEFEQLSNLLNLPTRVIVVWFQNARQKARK

# Variants of: B1
# procedure.text: abundance fitness (aPCA) (normalised: wild type 0, dead -1); higher = more abundant; growth selection in yeast, the domain comes from the species named
# conditions.used: Homo sapiens
measurement.kind: abundance fitness
Give bare numbers.

Below, each entry is followed by its recorded abundance fitness result.
V13P    -0.773
V13A    -0.018
R5P    0.026
F29K    -0.412
L14C    -0.508
Q10K    -0.924
K25G    -0.14
F6A    -0.678

Quick one: give me abundance fitness for each item below, same order please.
1. N37R
2. S1M
3. F18Q
4. P39K

1: -0.057; 2: -0.277; 3: -0.268; 4: -0.197
